Each entry below carries its recorded Log10 TGI (concentration in mol/L causing total growth inhibition (0% growth)).
system: Non-small cell lung; assay: NCI SRB cytotoxicity, non-small cell lung panel average; assay type: cell-based, human; conditions: average of cell lines

The examples below pair each entry with its known result.
COc1cc(-c2cc(/C=C/C(=O)c3ccc(F)c(F)c3)[nH]n2)cc(OC)c1OC [13e]: −4.75 mol/L
COc1ccc(C(=O)/C=C/c2cc(-c3ccc4c(c3)OCO4)n[nH]2)cc1OC: −5.08 mol/L
COc1ccc(C(=O)/C=C/c2cc(-c3cc(OC)c(OC)c(OC)c3)n[nH]2)cc1OC: −5.58 mol/L

May I ask what Log10 TGI (concentration in mol/L causing total growth inhibition (0% growth)) has been recorded for COc1cc(-c2cc(/C=C/C(=O)c3ccc4c(c3)OCO4)[nH]n2)cc(OC)c1OC [11e] ?
−4.70 mol/L

Cool, now COc1cc(-c2cc(/C=C/C(=O)c3ccc(Cl)c(Cl)c3)[nH]n2)cc(OC)c1OC [12e]
−4.52 mol/L

Cool, now COc1cc(C(=O)/C=C/c2cc(-c3cc(OC)c(OC)c(OC)c3)n[nH]2)cc(OC)c1OC [10e]
−5.42 mol/L

Cool, now COc1ccc(C(=O)/C=C/c2cc(-c3cc(OC)c(OC)c(OC)c3)n[nH]2)cc1
−5.36 mol/L

----------
Dear all, this message contains GI50 results, target or system SN12C.
Express it in µM; write the number only.

The examples below pair each entry with its known result.
COc1ccc(C(=O)/C=C/c2cc(-c3ccc4c(c3)OCO4)n[nH]2)cc1OC [8f]: 3.25
COc1cc(-c2cc(/C=C/C(=O)c3ccc(Cl)c(Cl)c3)[nH]n2)cc(OC)c1OC [12e]: 13.7
COc1cc(-c2cc(/C=C/C(=O)c3ccc(F)c(F)c3)[nH]n2)cc(OC)c1OC [13e]: 3.37
COc1ccc(C(=O)/C=C/c2cc(-c3cc(OC)c(OC)c(OC)c3)n[nH]2)cc1 [7e]: 1.81
COc1cc(-c2cc(/C=C/C(=O)c3ccc4c(c3)OCO4)[nH]n2)cc(OC)c1OC [11e]: 3.94

# value lookup — system SN12C, readout GI50, item COc1cc(C(=O)/C=C/c2cc(-c3cc(OC)c(OC)c(OC)c3)n[nH]2)cc(OC)c1OC [10e]
1.47

Cool, now COc1ccc(C(=O)/C=C/c2cc(-c3cc(OC)c(OC)c(OC)c3)n[nH]2)cc1OC [8e]
1.54

----------
Dear all, this message contains GI50 results, target or system OVCAR-3.
Express it in nM; write the number only.

COc1cc(C(=O)/C=C/c2cc(-c3cc(OC)c(OC)c(OC)c3)n[nH]2)cc(OC)c1OC [10e]: 1750
COc1cc(-c2cc(/C=C/C(=O)c3ccc(Cl)c(Cl)c3)[nH]n2)cc(OC)c1OC [12e]: 6990
COc1ccc(C(=O)/C=C/c2cc(-c3ccc4c(c3)OCO4)n[nH]2)cc1OC: 2020
COc1cc(-c2cc(/C=C/C(=O)c3ccc(F)c(F)c3)[nH]n2)cc(OC)c1OC [13e]: 2390
COc1ccc(C(=O)/C=C/c2cc(-c3cc(OC)c(OC)c(OC)c3)n[nH]2)cc1OC: 1680
COc1ccc(C(=O)/C=C/c2cc(-c3cc(OC)c(OC)c(OC)c3)n[nH]2)cc1: 1740

--- query ---
May I ask what GI50 has been recorded for COc1cc(-c2cc(/C=C/C(=O)c3ccc4c(c3)OCO4)[nH]n2)cc(OC)c1OC [11e] ?
3380
